Molecular target: human GM-CSF I117 (human, UniProt P04141 18-144)
Sequence (P04141 18-144 limits assumed): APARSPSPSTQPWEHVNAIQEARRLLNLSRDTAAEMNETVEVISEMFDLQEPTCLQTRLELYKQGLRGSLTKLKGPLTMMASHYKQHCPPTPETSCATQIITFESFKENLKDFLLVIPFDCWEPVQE
Experiment: cell-based or functional assay
Here, each record is paired with measured Fold improvement of humanized parental 4K21 on I117 (IC50, TF-1 proliferation) data.
Report as a plain number; the unit fold is understood.

# count of solved cases: 3
BINDER | ENDPOINT_VALUE
humanized parental anti-GM-CSF 4K21 VH3-07.1AL+VK2-A3.2 hIgG1K antibody (MSB0010439) (antibody, V domains shown, Human IgG1 kappa; also called humanized parental 4K21 hVH hVL; parental 4K21) VH: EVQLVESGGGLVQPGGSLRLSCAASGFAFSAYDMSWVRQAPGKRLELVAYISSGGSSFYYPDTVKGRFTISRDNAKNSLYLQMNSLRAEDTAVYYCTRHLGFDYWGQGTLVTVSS VL: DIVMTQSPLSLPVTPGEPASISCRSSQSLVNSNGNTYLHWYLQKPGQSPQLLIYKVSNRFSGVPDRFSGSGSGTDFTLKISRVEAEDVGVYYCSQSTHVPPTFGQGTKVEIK | 1
MSB0010601 4K21 (4K21 hVH S55K-T62S hVL N28I-H34S-N53R-H93Y) (antibody, V domains shown, IgG; also called optimized 4K21 antibody) VH: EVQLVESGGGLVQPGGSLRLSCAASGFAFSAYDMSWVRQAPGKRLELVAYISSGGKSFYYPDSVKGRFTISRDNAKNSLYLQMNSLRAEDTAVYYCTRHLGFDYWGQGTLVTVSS VL: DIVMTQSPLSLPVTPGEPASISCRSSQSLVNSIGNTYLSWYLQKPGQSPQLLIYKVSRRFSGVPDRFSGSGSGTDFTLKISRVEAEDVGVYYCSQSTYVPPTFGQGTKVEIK | 5.3
MSB0010603 4K21 (4K21 hVH S56V-T62S hVL N28I-H34S-N53R-H93Y) (antibody, V domains shown, IgG) VH: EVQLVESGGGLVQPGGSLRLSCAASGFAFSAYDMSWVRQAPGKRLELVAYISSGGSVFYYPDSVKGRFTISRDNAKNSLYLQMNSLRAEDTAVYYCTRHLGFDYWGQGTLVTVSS VL: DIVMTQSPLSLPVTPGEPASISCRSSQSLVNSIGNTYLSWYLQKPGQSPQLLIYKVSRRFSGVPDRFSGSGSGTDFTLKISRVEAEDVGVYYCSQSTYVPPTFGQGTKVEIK | 3.1

Query binder follows.
Inquiry: Could you tell me which Fold improvement of humanized parental 4K21 on I117 (IC50, TF-1 proliferation) is on file for MSB0010600 4K21 (4K21 hVH S55R-T62S hVL S27eY-N28I-H34S-N53R-H93Y) (antibody, V domains shown) VH: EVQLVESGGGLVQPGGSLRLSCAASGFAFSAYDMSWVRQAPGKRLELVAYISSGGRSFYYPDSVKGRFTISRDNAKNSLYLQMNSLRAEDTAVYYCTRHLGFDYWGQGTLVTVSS VL: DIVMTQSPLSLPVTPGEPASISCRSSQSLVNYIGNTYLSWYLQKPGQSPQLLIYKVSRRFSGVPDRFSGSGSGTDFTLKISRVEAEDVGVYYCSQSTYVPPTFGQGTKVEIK ?
Reply text: 3.6
